Listing of entries alongside the reported growth inhibition.
# Test details: NCI Yeast Anticancer Drug Screen. Data for the mlh1 rad18 strain (AID 175)
# Test settings: S. cerevisiae mlh1 rad18 strain growth inhibition; at 50.0 µM; active compounds read high
Compounds without any hit were thinned out: in the full panel of roughly 79,000, 15% have a hit. Activity calls are given as the source filed them. No stated cut-off is given here; in the data, active means growth inhibition above about 70%; inactive means the rest.

Worked examples, 4 compounds total:
# Compound, Endpoint value
data = [
    ("O=C1OC2C(O)COC2(O)C1(O)Cc1c[nH]c2ccccc12 (stereo not given)", "-11.2% (inactive)"),
    ("O=C(N/N=C/c1ccc(Cl)cc1Cl)c1cccc([N+](=O)[O-])c1", "24.4% (inactive)"),
    ("N#C/C(=C/C=C/c1ccco1)C(N)=O", "13.4% (inactive)"),
    ("Cc1cc(=O)n(NC(N)=O)c(C)c1C(=O)O", "-5.45% (inactive)"),
]

Lookup result for COC(=O)/C=C(/C)c1ccccc1 ; measured growth inhibition: -3.5% (inactive)

Lookup result for O=S(=O)([O-])c1ccc(N=Cc2ccccc2[O-])cc1.O=S(=O)([O-])c1ccc(N=Cc2ccccc2[O-])cc1.[Co+2] ; measured growth inhibition: -9.65% (inactive)

Lookup result for COC(=O)CC1(C(=O)OC)Oc2ccc(Br)cc2C(=O)N1c1ccc(Br)cc1Cl (stereo not given) ; measured growth inhibition: 27.7% (inactive)

Lookup result for COc1ccccc1Oc1ccccc1 ; measured growth inhibition: 20.8% (inactive)

Lookup result for CCCOC(=O)c1cc(C(=CCC[C@H]2CC[C@@]3(C)[C@@H](CC[C@@H]4[C@@H]3CC[C@]3(C)[C@@H](C(C)CCCC(C)C)CC[C@@H]43)C2)c2cc(Cl)c(O)c(C(=O)OCCC)c2)cc(Cl)c1O (stereo not given in full) ; measured growth inhibition: -45% (inactive)

Lookup result for CC(=O)Nc1cc2c(s1)CCC1CC(=O)NN=C21 (stereo not given) ; measured growth inhibition: -11.5% (inactive)

###

Listing of entries alongside the reported growth inhibition.
# Test details: NCI Yeast Anticancer Drug Screen. Data for the mec2-1 strain (AID 157)
# Test settings: S. cerevisiae mec2-1 strain, at 50.0 µM, active compounds read high
# Protocol: Growth inhibition of yeast strains with defined genetic alterations is measured as a screen for potential anti-cancer activity. Selected strains with alterations in DNA damage repair or cell cycle control were exposed to compounds and growth inhibition was measured relative to vehicle treated controls. The strain used in this assay is mec2-1
About 79,000 compounds went through this panel and 15% of them were active in at least one assay; those are over-represented in the sample as a whole.
All answers are understood in %, so give the number only.

# Molecule, Unit annotation, Endpoint value
records = [
    ("CC(=O)Oc1c(Br)cc(C(=O)c2ccccc2C(=O)c2cc(Br)c(OC(C)=O)c(Br)c2)cc1Br", "%", 25.5),
    ("C[S+]1C=C(c2ccccc2)SC=C1c1ccccc1 (centres undefined)", "%", 32.9),
    ("O=C1N2Cc3c4ccc5c3CN3C(=O)N6Cc7c(ccc(c7CN1C6(c1ccccc1)C23c1ccccc1)OCCOCCOc1cc(Br)c(Br)cc1OCCOCCO4)OCCOCCOc1cc(Br)c(Br)cc1OCCOCCO5 (centres undefined)", "%", 8.95),
]

Lookup result for COc1ccc2c(c1)C1(C)CCCC(C)(C(N)=O)C1CC2 (centres undefined) ; measured growth inhibition: -15.8

Lookup result for Cc1ccc(S(=O)(=O)c2ccc(C)cc2[N+](=O)[O-])c([N+](=O)[O-])c1 ; measured growth inhibition: -52.1

Lookup result for O=C(O)c1c(Br)c(Br)c(Br)c(Br)c1C(=O)Nc1ccccc1C(F)(F)F ; measured growth inhibition: -11.4

Lookup result for CC(C)(C(=O)O)c1ccccc1C(=O)c1ccccc1 ; measured growth inhibition: 12.1

Lookup result for O=C1NC(=O)C(c2ccc(Br)c3ccccc23)=C1O ; measured growth inhibition: -4.75
